Where do the numbers come from? From PubChem BioAssay (NCI).

- method description: NCI Yeast Anticancer Drug Screen. Data for the bub3 strain (AID 167)
- assay conditions: S. cerevisiae bub3 mutant strain, at 50.0 µM (retest, dose inferred, filed as 5.0)
About 79,000 compounds went through this panel and 15% of them were active in at least one assay; those are over-represented in the sample as a whole. Calls of active or inactive are those of the source. Cut-off read from the data, not from the text of the source: active = growth inhibition above about 70%; inactive = the rest.
Allowed answers: active, inactive

Here's what some known entries look like.
[[record]]
molecule = "S=C(Nc1ccc(Cl)cc1)SC1CCCCC1"
class = "inactive"

[[record]]
molecule = "Cc1cc(O)cc(O)c1N=Nc1ccc([N+](=O)[O-])cc1"
class = "inactive"

[[record]]
molecule = "CCOC(=O)c1cnc2cc(C(F)(F)F)ccc2c1N=[N+]=[N-]"
class = "inactive"


State the result this test recorded for O=C1C2C=CC1C1C(=O)OC(=O)C21 (configuration not stated) .
inactive

State the result this test recorded for O=Nc1cccnc1N=O .
active

State the result this test recorded for CCCCN1C(=O)N(c2ccc(OCC)cc2)C2N(CCCC)C1C(C)(C)C2(C)C (configuration not stated) .
inactive

State the result this test recorded for O=[N+]([O-])c1ccc2c(c1)C(N1CCN(CCO)CC1)Cc1ccc(F)cc1S2 (configuration not stated) .
active

State the result this test recorded for CC(=O)Oc1cc(-c2cc(OC(C)=O)c(OC(C)=O)c3ccccc23)c2ccccc2c1OC(C)=O .
active

State the result this test recorded for O=C(NCCCCNCCCNC(=O)c1cc(-c2ccccc2)nc2ccccc12)c1cc(-c2ccccc2)nc2ccccc12 .
inactive

###

Listing of entries alongside the reported growth inhibition.
- method description: NCI Yeast Anticancer Drug Screen. Data for the mec2-1 strain (AID 157)
- assay conditions: S. cerevisiae mec2-1 strain, at 50.0 µM, hits give high values
- Procedure: Growth inhibition of yeast strains with defined genetic alterations is measured as a screen for potential anti-cancer activity. Selected strains with alterations in DNA damage repair or cell cycle control were exposed to compounds and growth inhibition was measured relative to vehicle treated controls. The strain used in this assay is mec2-1
Compounds without any hit were thinned out: in the full panel of roughly 79,000, 15% have a hit.
Your answer should be a plain number; it is taken to be in %.

Worked examples follow.
[[record]]
molecule = "Fc1ccc(NC(=S)SCc2ccc(Cl)c(Cl)c2)cc1F"
reported_endpoint = "growth inhibition"
unit_of_measurement = "%"
recorded_result = 93.2

[[record]]
molecule = "CCCCOC(=O)N[C@H]1CCc2cc(OC)c(OC)c(OC)c2-c2ccc(SC)c(=O)cc21"
reported_endpoint = "growth inhibition"
unit_of_measurement = "%"
recorded_result = 53

[[record]]
molecule = "O=C1OC(=O)C2CCCC3CCCC1C32 (configuration not stated)"
reported_endpoint = "growth inhibition"
unit_of_measurement = "%"
recorded_result = 36.8

[[record]]
molecule = "C#CCCCc1ccccc1"
reported_endpoint = "growth inhibition"
unit_of_measurement = "%"
recorded_result = 47.4

[[record]]
molecule = "COc1cc(C(=O)/C=C/c2ccccc2O)ccc1O"
reported_endpoint = "growth inhibition"
unit_of_measurement = "%"
recorded_result = 94.4


Complete the entry with growth inhibition for CC1=C(SCCO)C(=O)c2ccccc2C1=O
73.3

Complete the entry with growth inhibition for O=C(Nc1ccccc1)C(=O)C(C(=O)c1ccccc1)C(c1ccccc1)c1ccccc1 (configuration not stated)
15.9

Complete the entry with growth inhibition for OC(c1ccc(F)cc1)(c1ccc(F)cc1)C1CC1
40.1

Complete the entry with growth inhibition for S=C(N/N=C(/c1ccccc1)c1ccccn1)N1CCCCCC1
80.5

Complete the entry with growth inhibition for Cc1cc(S(=O)(=O)/N=C(/NN)NNc2cccc(C(F)(F)F)n2)c(S)cc1Cl
7.75

Complete the entry with growth inhibition for CC(C(=O)N1C(=O)N(C(=O)[C@H](C)C(O)c2ccccc2)[C@H](c2ccccc2)[C@H]1c1ccccc1)[C@@H](O)c1ccccc1 (some centres not stated)
73.2

Complete the entry with growth inhibition for Cc1ccc2ccc(O)cc2c1
1.85
